Entries and their measured HEK-Blue activity, No BP, DF-10000 follow.
Target: T1, IL-18 receptors on HEK-Blue IL-18 reporter cells (UniProt Q13478 19-541; O95256 20-599, limits assumed); also: unit not given here
T1 sequence (looked up) 1: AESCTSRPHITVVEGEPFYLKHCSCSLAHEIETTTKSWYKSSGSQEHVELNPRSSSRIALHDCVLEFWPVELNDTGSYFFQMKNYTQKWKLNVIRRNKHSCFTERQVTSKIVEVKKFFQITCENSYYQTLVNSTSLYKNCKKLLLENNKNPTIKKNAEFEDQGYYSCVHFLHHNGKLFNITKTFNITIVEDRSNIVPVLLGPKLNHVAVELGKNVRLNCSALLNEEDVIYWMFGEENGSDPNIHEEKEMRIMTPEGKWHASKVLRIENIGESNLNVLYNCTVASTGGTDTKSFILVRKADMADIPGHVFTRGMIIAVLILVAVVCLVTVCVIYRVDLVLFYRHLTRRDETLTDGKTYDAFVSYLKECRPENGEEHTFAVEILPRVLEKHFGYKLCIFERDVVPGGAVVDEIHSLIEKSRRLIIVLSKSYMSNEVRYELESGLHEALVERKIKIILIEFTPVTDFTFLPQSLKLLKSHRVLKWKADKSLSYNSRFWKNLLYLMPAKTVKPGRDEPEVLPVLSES
T1 sequence (looked up) 2: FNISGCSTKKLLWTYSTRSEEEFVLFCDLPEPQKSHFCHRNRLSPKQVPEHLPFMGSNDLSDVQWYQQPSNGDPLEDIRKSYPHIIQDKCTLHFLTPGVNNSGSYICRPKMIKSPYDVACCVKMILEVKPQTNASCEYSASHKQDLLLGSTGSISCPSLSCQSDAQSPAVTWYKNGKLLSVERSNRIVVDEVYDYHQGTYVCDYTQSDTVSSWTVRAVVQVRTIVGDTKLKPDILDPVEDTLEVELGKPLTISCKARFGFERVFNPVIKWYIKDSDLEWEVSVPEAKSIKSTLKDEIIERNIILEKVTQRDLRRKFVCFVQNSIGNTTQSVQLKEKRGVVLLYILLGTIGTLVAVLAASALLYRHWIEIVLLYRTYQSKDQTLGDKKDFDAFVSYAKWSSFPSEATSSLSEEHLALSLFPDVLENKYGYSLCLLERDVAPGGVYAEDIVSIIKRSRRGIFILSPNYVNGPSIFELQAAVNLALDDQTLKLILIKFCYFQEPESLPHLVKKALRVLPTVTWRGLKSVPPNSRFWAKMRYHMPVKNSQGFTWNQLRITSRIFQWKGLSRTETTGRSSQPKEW
Experiment: cell-based or functional assay
# output: bare number, no unit

binder	endpoint-result
IL-18 variant T34S, S36Y, D37N, D40E, N41Q, K53Y, S55I (ligand) YFGKLESKLSVIRNLNDQVLFIDQGNRPLFEDMSDYNMREQAPRTIFIISMYYDIQPRGMAVTISVKSEKISTLSSENKIISFKEMNPPDNIKDTKSDIIFFQRSVPGHDNKMQFESSSYEGYFLASEKERDLFKLILKKEDELGDRSIMFTVQNED	0.09
IL-18 variant K53S, S55Y, P107M (ligand) YFGKLESKLSVIRNLNDQVLFIDQGNRPLFEDMTDSDMRDNAPRTIFIISMYSDYQPRGMAVTISVKSEKISTLSSENKIISFKEMNPPDNIKDTKSDIIFFQRSVMGHDNKMQFESSSYEGYFLASEKERDLFKLILKKEDELGDRSIMFTVQNED	0.15

Continue with the next binder.
Exercise: Given the binder IL-18 variant K53H, S55M, T63S (ligand) YFGKLESKLSVIRNLNDQVLFIDQGNRPLFEDMTDSDMRDNAPRTIFIISMYHDMQPRGMAVSISVKSEKISTLSSENKIISFKEMNPPDNIKDTKSDIIFFQRSVPGHDNKMQFESSSYEGYFLASEKERDLFKLILKKEDELGDRSIMFTVQNED , what is its reported HEK-Blue activity, No BP, DF-10000?
Key: 0.13
